Where do these numbers come from? They come from patent US20090047246A1.

System: HCV NS3 helicase (Hepatitis C virus genotype 1b)
Construct: full-length NS3 (1-631), purified at Array BioPharma
Method description: HCV Helicase Prompt FRET Assay (Example A)
Format: biochemical
Condition info: HCV NS3 helicase; tables do not say whether Example A or Example B assay; read-out: IC50 Activity

| Molecule | IC50 |
| --- | --- |
| COC(=O)C(C)c1cn(-c2ccc([N+](=O)[O-])cc2C)c2ccc(Br)cc12 (centres unmarked) [Example 390] | > 50 µM |
| O=C(O)Cc1cn(Cc2csc3ccc(F)cc23)c2ccc(Br)cc12 [Example 132] | 10 to 50 µM |
| CC(C)c1ccc(Cn2cc(C(NC(=O)c3c[nH]cn3)C(=O)O)c3ccccc32)cc1 (centres unmarked) [Example 422] | 10 to 50 µM |
| O=C(O)Cc1c(C(=O)Cc2ccc(-c3ccccc3)cc2)[nH]c2ccccc12 [Example 249] | 10 to 50 µM |
| CC(C)c1ccc(Cn2c(C(=O)NCc3ccc(Cl)cc3)c(CC(=O)O)c3ccccc32)cc1 [Example 450] | < 10 µM |
| O=C(O)Cc1c(Cc2ccc(-c3ccccc3Cl)cc2)[nH]c2ccc(Br)cc12 [Example 739] | 10 to 50 µM |
| CCN(Cc1ccccc1)c1ccc(-n2nc(CC(=O)O)c3ccccc32)c(C)c1 [Example 175] | 10 to 50 µM |
| Cc1ccc(-c2ccc(C(=O)c3[nH]c4ccccc4c3CC(=O)O)cc2)cc1C [Example 262] | 10 to 50 µM |

----------
System: HCV NS3 helicase (Hepatitis C virus genotype 1b, UniProt P26663)
Construct: full-length NS3 (1-631), purified at Array BioPharma
Sequence (P26663 1027-1657): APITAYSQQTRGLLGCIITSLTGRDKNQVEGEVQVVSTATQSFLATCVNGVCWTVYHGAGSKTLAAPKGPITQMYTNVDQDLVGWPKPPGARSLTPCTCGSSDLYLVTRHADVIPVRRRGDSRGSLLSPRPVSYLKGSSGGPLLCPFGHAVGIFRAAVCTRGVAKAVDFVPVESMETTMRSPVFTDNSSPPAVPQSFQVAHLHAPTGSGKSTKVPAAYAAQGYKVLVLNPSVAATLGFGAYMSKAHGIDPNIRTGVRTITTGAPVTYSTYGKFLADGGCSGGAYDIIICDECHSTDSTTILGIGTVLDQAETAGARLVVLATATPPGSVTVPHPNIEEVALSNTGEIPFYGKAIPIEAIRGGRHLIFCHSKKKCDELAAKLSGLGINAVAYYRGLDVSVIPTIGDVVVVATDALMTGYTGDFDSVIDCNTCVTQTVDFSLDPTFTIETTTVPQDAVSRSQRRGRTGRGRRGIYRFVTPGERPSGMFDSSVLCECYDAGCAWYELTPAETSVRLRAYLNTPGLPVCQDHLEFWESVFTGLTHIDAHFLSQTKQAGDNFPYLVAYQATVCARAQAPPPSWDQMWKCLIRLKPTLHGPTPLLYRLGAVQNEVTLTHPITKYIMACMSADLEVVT
Method description: HCV Helicase Prompt FRET Assay (Example A)
Assay type: biochemical
Condition info: Table 36, compounds made using Scheme 54; read-out: IC50 Activity

| Compound | IC50 |
| --- | --- |
| CCOC(=O)Cc1cn(Cc2c(-c3ccccc3)sc3ccccc23)c2cc(-c3cc(N)cc(N)c3)ccc12 | < 10 µM |
| CCOC(=O)Cc1cn(Cc2c(-c3cccc(Cl)c3)sc3ccccc23)c2cc(-c3cc([N+](=O)[O-])cc([N+](=O)[O-])c3)ccc12 | 10 to 50 µM |
| Nc1cc(N)cc(-c2ccc3c(CC(=O)O)cn(Cc4nc5ccccc5s4)c3c2)c1 | > 50 µM |
| CCOC(=O)Cc1cn(Cc2csc3ccc(OC(F)(F)F)cc23)c2cc(-c3cc([N+](=O)[O-])cc([N+](=O)[O-])c3)ccc12 | 10 to 50 µM |
| Nc1cc(N)cc(-c2ccc3c(CC(=O)O)cn(Cc4csc5c(Cl)cccc45)c3c2)c1 | 10 to 50 µM |
| Cc1sc2cc(Cl)c(F)cc2c1Cn1cc(CC(=O)O)c2ccc(-c3cc(N)cc(N)c3)cc21 | < 10 µM |
| CCOC(=O)Cc1cn(Cc2c(-c3ccccc3)sc3ccccc23)c2cc(-c3cc([N+](=O)[O-])cc([N+](=O)[O-])c3)ccc12 | 10 to 50 µM |
| CCOC(=O)Cc1cn(Cc2csc3c(Cl)c(Cl)ccc23)c2cc(Br)ccc12 | > 50 µM |
| Nc1cc(N)cc(-c2ccc3c(CC(=O)O)cn(Cc4c(-c5cccc(Cl)c5)sc5ccccc45)c3c2)c1 | < 10 µM |
| O=C(O)Cc1cn(Cc2csc3c(Cl)c(Cl)ccc23)c2cc(Br)ccc12 | > 50 µM |
| COc1cc(Cl)cc2c(Cn3cc(CC(=O)O)c4ccc(-c5cc(N)cc(N)c5)cc43)csc12 | 10 to 50 µM |
| CCOC(=O)Cc1cn(Cc2c(CC)sc3ccc(Cl)cc23)c2cc(-c3cc([N+](=O)[O-])cc([N+](=O)[O-])c3)ccc12 | > 50 µM |
| Cc1sc2ccc(Cl)cc2c1Cn1cc(CC(=O)O)c2ccc(-c3cc(N)cc(N)c3)cc21 | < 10 µM |
| O=C(O)Cc1cn(Cc2csc3cc(Cl)cc(Cl)c23)c2cc(Br)ccc12 | > 50 µM |
| O=C(O)Cc1cn(Cc2csc3cc(Cl)ccc23)c2cc(Br)ccc12 | > 50 µM |
| Nc1cc(N)cc(-c2ccc3c(CC(=O)O)cn(Cc4csc5c(Cl)c(Cl)ccc45)c3c2)c1 | 10 to 50 µM |
| Cc1sc2ccc(Cl)cc2c1Cn1cc(CC(=O)O)c2ccc(Br)cc21 | 10 to 50 µM |
| O=C(O)Cc1cn(Cc2csc3c(Cl)cccc23)c2cc(Br)ccc12 | > 50 µM |
| CCc1sc2ccc(Cl)cc2c1Cn1cc(CC(=O)O)c2ccc(-c3cc(N)cc(N)c3)cc21 | < 10 µM |
| Nc1cc(N)cc(-c2ccc3c(CC(=O)O)cn(Cc4csc5ccc(OC(F)(F)F)cc45)c3c2)c1 | 10 to 50 µM |
| Nc1cc(N)cc(-c2ccc3c(CC(=O)O)cn(Cc4c(-c5ccccc5)sc5ccccc45)c3c2)c1 | < 10 µM |
| CCOC(=O)Cc1cn(Cc2csc3ccc(OC(F)(F)F)cc23)c2cc(-c3cc(N)cc(N)c3)ccc12 | 10 to 50 µM |
| O=C(O)Cc1cn(Cc2csc3cccc(Cl)c23)c2cc(Br)ccc12 [Example 783] | 10 to 50 µM |
